All figures here come from patent US11168073B2.

Target: recombinant human DAO (diamine oxidase) (Homo sapiens, UniProt P19801)
Construct: purchased R&D systems
Sequence (P19801 20-751): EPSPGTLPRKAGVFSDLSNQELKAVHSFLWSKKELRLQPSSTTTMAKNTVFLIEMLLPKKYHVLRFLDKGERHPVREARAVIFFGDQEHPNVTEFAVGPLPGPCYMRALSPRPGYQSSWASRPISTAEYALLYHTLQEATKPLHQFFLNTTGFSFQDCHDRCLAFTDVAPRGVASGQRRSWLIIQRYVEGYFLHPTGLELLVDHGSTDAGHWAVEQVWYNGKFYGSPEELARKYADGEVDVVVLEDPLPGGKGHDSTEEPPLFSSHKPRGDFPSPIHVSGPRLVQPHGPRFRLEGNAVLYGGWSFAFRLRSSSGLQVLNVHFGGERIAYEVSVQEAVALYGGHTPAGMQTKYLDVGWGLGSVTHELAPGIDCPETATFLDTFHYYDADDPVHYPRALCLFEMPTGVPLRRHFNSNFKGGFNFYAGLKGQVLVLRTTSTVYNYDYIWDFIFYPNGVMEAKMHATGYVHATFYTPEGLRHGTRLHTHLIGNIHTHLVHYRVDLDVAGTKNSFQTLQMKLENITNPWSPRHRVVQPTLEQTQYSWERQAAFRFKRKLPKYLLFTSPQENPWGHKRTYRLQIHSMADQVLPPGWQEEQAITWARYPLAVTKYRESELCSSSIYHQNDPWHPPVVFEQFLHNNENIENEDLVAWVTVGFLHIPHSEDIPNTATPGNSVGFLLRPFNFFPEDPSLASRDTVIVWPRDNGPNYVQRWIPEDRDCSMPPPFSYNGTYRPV
Assay: Activity evaluation on recombinant human DAO (Amplex Red/HRP-coupled assay, 1 mM putrescine substrate)
Assay type: biochemical
Conditions: 1 mM putrescine substrate, read-out: Inhibitory Activity (IC50, nM) DAO
Where a name gives a salt, the structure may show the parent alone.
readout-label: IC50

CCn1cc(-c2ccccc2Cn2cnn(CC(CN)=C(F)F)c2=O)cn1 [Example 278, trifluoroacetate]; > 100000 nM
NCC(Cn1ncn(Cc2cc(-c3cc(F)c4[nH]c(=O)ccc4c3)cs2)c1=O)=C(F)F [Example 189, Trifluoroacetate]; 23000 nM

Entry Cc1cc(C#Cc2cnc3c(c2)OCC(=O)N3)cnc1-n1cnn(CC(CN)=C(F)F)c1=O [Example 248, trifluoroacetate] ; assay system recombinant human DAO (diamine oxidase) (Homo sapiens, UniProt P19801); IC50 recorded at > 100000 nM

Entry Cc1cc(-c2ccc3sc(N)nc3c2)cnc1-n1cnn(CC(CN)=C(F)F)c1=O [Example 226, Trifluoroacetate] ; assay system recombinant human DAO (diamine oxidase) (Homo sapiens, UniProt P19801); IC50 recorded at > 100000 nM

Entry CCn1cc(-c2ccccc2Cn2cnn(CC(CN)=C(F)F)c2=O)ccc1=O [Example 285, Trifluoroacetate] ; assay system recombinant human DAO (diamine oxidase) (Homo sapiens, UniProt P19801); IC50 recorded at > 100000 nM
